Organism: Homo sapiens
PROTOCOL TEXT: Liver toxicity in human assessed as induction of drug-induced liver injury by measuring verified drug-induced liver injury concern status
QUANTITY MEASURED: DILI_Concern

CNNCc1ccc(C(=O)NC(C)C)cc1: Less-Dili-Concern
CC1(C)O[C@@H]2[C@@H](CO[C@@]3(COS(N)(=O)=O)OC(C)(C)O[C@@H]23)O1 [TOPIRAMATE]: Less-Dili-Concern
CN(C)CC[C@@H](c1ccc(Br)cc1)c1ccccn1: No-Dili-Concern
C[C@@H](Cc1ccccc1)N(C)Cc1ccccc1: No-Dili-Concern

###

Species: Homo sapiens
PROTOCOL TEXT: Liver toxicity in human assessed as induction of drug-induced liver injury by measuring verified drug-induced liver injury concern status
QUANTITY MEASURED: DILI_Concern

Consider the worked cases shown below.
CC(C[N+](C)(C)C)OC(N)=O (stereo not given): No-Dili-Concern
C[C@H]1O[C@@H](O[C@H]2[C@@H](O)C[C@H](O[C@H]3[C@@H](O)C[C@H](O[C@H]4CC[C@@]5(C)[C@H](CC[C@@H]6[C@@H]5C[C@@H](O)[C@]5(C)[C@@H](C7=CC(=O)OC7)CC[C@]65O)C4)O[C@@H]3C)O[C@@H]2C)C[C@H](O)[C@@H]1O: No-Dili-Concern
COc1cc2c(cc1OC)C(=O)C(CC1CCN(Cc3ccccc3)CC1)C2 (stereo not given): Less-Dili-Concern
CCCCCCC(C)(C)c1cc(O)c2c(c1)OC(C)(C)C1CCC(=O)CC21 (stereo not given): No-Dili-Concern
CN1CCC(Nc2ncc3ncnc(Nc4ccc(F)c(Cl)c4)c3n2)CC1: Most-Dili-Concern

Exercise: Which DILI_Concern value belongs to `Clc1ccc2c(c1)C(c1ccccc1)=NCc1nncn1-2` ?
Solution: No-Dili-Concern

Exercise: Next compound: N[C@@H](C(=O)N[C@@H]1C(=O)N2C(C(=O)O)=C(Cl)CC[C@H]12)c1ccccc1 [LORACARBEF ANHYDROUS]
Solution: Less-Dili-Concern

Exercise: Next compound: `CC(C)(C)NC[C@H](O)COc1nsnc1N1CCOCC1`
Solution: Ambiguous-Dili-Concern

Exercise: Next compound: `COc1c(C)c2c(c(O)c1C/C=C(\C)CCC(=O)O)C(=O)OC2`
Solution: Ambiguous-Dili-Concern

Exercise: Next compound: `Cc1[nH]cnc1CN1CCc2c(c3ccccc3n2C)C1=O`
Solution: Less-Dili-Concern

Exercise: Next compound: `CN1C(C(=O)Nc2ccccn2)=C(O)c2ccccc2S1(=O)=O`
Solution: Less-Dili-Concern

Exercise: Next compound: `CN1c2c(oc(=O)n(-c3ccccn3)c2=O)-c2ccccc2S1(=O)=O`
Solution: Most-Dili-Concern

Exercise: Next compound: `O=C1C(O)=C([C@H]2CC[C@H](c3ccc(Cl)cc3)CC2)C(=O)c2ccccc21`
Solution: Ambiguous-Dili-Concern

Exercise: Next compound: `COc1ccc2[n-]c([S@+]([O-])Cc3ncc(C)c(OC)c3C)nc2c1.[Na+]`
Solution: Less-Dili-Concern

Exercise: Next compound: CN(C)CCOC(C)(c1ccccc1)c1ccccn1 (stereo not given)
Solution: No-Dili-Concern
